- Tested on: Leishmania major
- test-protocol: Antileishmanial activity against Leishmania major MRHO/IR/75/E promastigotes assessed as parasite growth inhibition incubated for 24 hrs by MTT assay
- Type: functional, organism-based
The following compounds are shown together with reported pIC50 values.
As a rule, pIC50 stands for the negative log10 of the concentration, concentration in M.

Here are 2 compounds together with their reported answers.
chem-smiles | system-tested | pIC50
CCCNC(=O)CSc1nnc(-c2ccc([N+](=O)[O-])o2)s1 | Leishmania major | 4.71
COc1ccc(CCNC(=O)CSc2nnc(-c3ccc([N+](=O)[O-])o3)s2)cc1OC | Leishmania major | 4.72

Task item: Please state recorded pIC50 (tested on Leishmania major) of O=C(CSc1nnc(-c2ccc([N+](=O)[O-])o2)s1)NCc1ccccc1
Reply: 4.33
